These entries and their values trace back to patent US20060223875A1.

Here, each record is paired with measured IC50 data.
Test target: serotonin (5-HT) transporter (Rattus norvegicus)
Sequence (P31652 whole entry): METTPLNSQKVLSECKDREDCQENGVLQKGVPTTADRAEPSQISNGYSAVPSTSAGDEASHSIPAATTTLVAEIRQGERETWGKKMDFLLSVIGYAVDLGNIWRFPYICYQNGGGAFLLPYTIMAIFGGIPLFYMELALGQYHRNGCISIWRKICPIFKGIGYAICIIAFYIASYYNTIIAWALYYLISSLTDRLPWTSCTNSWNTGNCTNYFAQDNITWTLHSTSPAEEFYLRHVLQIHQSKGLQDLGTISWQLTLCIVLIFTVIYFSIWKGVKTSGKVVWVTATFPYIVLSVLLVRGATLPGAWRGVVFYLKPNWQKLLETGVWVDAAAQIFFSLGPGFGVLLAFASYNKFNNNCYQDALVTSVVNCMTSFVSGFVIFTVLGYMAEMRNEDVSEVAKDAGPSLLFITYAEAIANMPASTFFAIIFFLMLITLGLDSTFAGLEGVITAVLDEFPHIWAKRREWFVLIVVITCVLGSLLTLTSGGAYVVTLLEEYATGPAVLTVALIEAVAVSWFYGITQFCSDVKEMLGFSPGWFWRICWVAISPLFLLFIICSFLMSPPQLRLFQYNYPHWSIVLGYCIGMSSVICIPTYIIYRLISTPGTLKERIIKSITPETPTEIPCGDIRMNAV
Assay protocol: Inhibition of [3H]5-HT uptake in rat whole brain synaptosomes
Type: biochemical
Test settings: rat whole brain synaptosomes, [3H]5-HT, 15 min, 37° C.; read-out: Inhibition of 5-HT Uptake (IC50)

{"Molecule": "CN1CC2CC2(c2ccc(CN)cc2)C1 (centres unmarked)", "Measurement unit": "µM", "IC50": 7.4}
{"Molecule": "CN1CC2CC2(c2ccc(C(F)(F)F)cc2)C1 (centres unmarked)", "Measurement unit": "µM", "IC50": 0.13}
{"Molecule": "Cc1ccc(C23CC2CN(C(C)(C)C)C3)cc1 (centres unmarked)", "Measurement unit": "µM", "IC50": 7.6}
{"Molecule": "COCCN1CC2CC2(c2ccc(C)cc2)C1 (centres unmarked)", "Measurement unit": "µM", "IC50": 8}
{"Molecule": "CCCN1CC2CC2(c2ccc(C)cc2)C1 (centres unmarked)", "Measurement unit": "µM", "IC50": 0.76}
{"Molecule": "Cc1ccc(C23CC2CN(CC(F)(F)F)C3)cc1 (centres unmarked)", "Measurement unit": "µM", "IC50": 25}
{"Molecule": "Cc1ccc(C23CC2CN(C(C)C)C3)cc1 (centres unmarked)", "Measurement unit": "µM", "IC50": 0.17}
{"Molecule": "Cc1ccc(C23CNCC2C3)cc1.Cl (centres unmarked) [bicifadine, hydrochloride, reference compound]", "Measurement unit": "µM", "IC50": 0.13}

* * *

Test target: dopamine (DA) transporter (Rattus norvegicus)
Sequence (P23977 whole entry): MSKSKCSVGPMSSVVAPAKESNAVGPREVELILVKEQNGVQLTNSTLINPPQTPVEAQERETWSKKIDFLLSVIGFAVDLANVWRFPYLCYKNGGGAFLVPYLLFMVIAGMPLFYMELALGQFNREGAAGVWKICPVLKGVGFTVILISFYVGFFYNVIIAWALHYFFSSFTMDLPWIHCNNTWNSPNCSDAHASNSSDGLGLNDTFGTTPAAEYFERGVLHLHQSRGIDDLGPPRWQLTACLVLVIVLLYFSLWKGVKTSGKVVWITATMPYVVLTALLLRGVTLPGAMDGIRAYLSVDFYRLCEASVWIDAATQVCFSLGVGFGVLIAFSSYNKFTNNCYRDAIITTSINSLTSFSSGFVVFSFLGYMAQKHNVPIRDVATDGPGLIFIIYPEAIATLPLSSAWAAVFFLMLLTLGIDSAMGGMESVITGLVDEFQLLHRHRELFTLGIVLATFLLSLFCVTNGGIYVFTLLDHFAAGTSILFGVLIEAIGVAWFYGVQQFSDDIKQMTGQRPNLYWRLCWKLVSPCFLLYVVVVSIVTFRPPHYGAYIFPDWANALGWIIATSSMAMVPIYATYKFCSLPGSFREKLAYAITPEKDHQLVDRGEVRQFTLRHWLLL
Assay protocol: Inhibition of [3H]DA uptake in rat striatum synaptosomes
Assay type: biochemical
Test settings: rat striatum synaptosomes, [3H]DA, 15 min, 37° C.; read-out: Inhibition of DA Uptake (IC50)
Endpoint label: IC50 (nM)

{"Molecule": "Cc1ccc(C23CC2CN(C(C)C)C3)cc1 (stereo not drawn)", "Endpoint label": "IC50", "Val": 610}
{"Molecule": "Cc1ccc(C23CC2CN(C(C)(C)C)C3)cc1 (stereo not drawn)", "Endpoint label": "IC50", "Val": 7300}
{"Molecule": "CCCN1CC2CC2(c2ccc(C)cc2)C1 (stereo not drawn)", "Endpoint label": "IC50", "Val": 2700}
